- protocol-details: small-molecule binders of probe aLefty1, primary screen, biochemical, small-molecule microarray, 635/667 nm fluorescence (AID 1153);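 also: score merges spot fluorescence with signal-to-noise ratio from the scanned slide images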
- stated-conditions: higher = more signal
Classify by measured composite z-score: y if it is equal to or exceeds -0.1, n if it is smaller.

# chemical-structure, assigned-category
records = [
    ("CCOC(=O)C1=NO[C@]2(C=C(Br)C3(OCCCO3)[C@H]3O[C@H]32)C1", "y"),
    ("CCOC(=O)NN=C1C[C@@H](O)[C@@H](O)[C@@H]2[C@@H]3C(=O)N(C(C)(C)C)C(=O)[C@@H]3CC[C@H]12", "y"),
    ("CC(C)(C)N1C(=O)[C@H]2[C@H]3[C@H](O)[C@H](O)CC(=O)[C@@H]3CC[C@H]2C1=O", "n"),
    ("O=C1C[C@@H](O)[C@@H](O)[C@@H]2[C@@H]3C(=O)N(Cc4ccccc4)C(=O)[C@@H]3CC[C@@H]12", "y"),
    ("O=C1[C@H]2[C@H]3[C@H](O)[C@H](O)CC(=NOCc4ccccc4)[C@@H]3CC[C@H]2C(=O)N1Cc1ccc2c(c1)OCO2", "y"),
    ("C[C@@H](c1ccccc1)N1C(=O)[C@H]2[C@H]3[C@H](O)[C@H](O)CC(=O)[C@H]3CC[C@H]2C1=O", "n"),
    ("CO[C@H]1COC(=O)CC=C[C@H](C)[C@@H](OC)COC(=O)[C@H](C)COC(=O)CC=C[C@@H]1C", "n"),
    ("CC(=O)OC[C@H]1O[C@H](CCON=C2[C@H]3CCn4c(=O)n(-c5ccccc5)c(=O)n4[C@H]3[C@H](O)[C@@H]3O[C@H]23)C=C[C@@H]1OC(C)=O", "y"),
    ("CO[C@H]1COC(=O)[C@@H]2CCCN2C(=O)CC=C[C@@H](C)[C@H](OC)COC(=O)[C@@H](OCc2ccccc2)C=C[C@@H]1C", "n"),
    ("CO[C@H]1COC(=O)[C@@H](C)COC(=O)[C@@H](OCc2ccccc2)C=C[C@@H]1C", "n"),
]

* * *

- Tested on: Sonic hedgehog protein (Shh)
- protocol-details: small-molecule binders of Shh protein, primary screen, biochemical, small-molecule microarray, 635/667 nm fluorescence (AID 1151);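 also: Shh protein binding to compounds spotted on small-molecule microarray slides; score combines spot fluorescence intensity with signal-to-noise across triplicate slides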
- stated-conditions: small-molecule microarray binding, 635 nm fluorescence; higher = more signal

# molecule, target-of-assay, composite z-score
records = [
    ("COC(=O)CC=C[C@@H](C)[C@@H](C=NO[C@H](C)c1cn([C@H](CO)Cc2ccccc2)nn1)NS(=O)(=O)c1ccc(C)cc1", "Sonic hedgehog protein (Shh)", 0.285),
    ("COc1ccc(O[C@H]2C=C[C@@H](c3ccccc3)O[C@@H]2CON=C(C)C)cc1", "Sonic hedgehog protein (Shh)", -0.114),
    ("CC(C)C[C@H](NC(=O)CCC1CC(OC(=O)NCc2cccc3ccccc23)CC2(CCCC(COC(=O)NCc3ccccc3)O2)O1)C(=O)NCC(c1ccccc1)c1ccccc1 (stereo partly specified)", "Sonic hedgehog protein (Shh)", 0.954),
    ("CCOC(=O)[C@H](CC(C)C)NC(=O)CCC1CC(OC(=O)NCc2cccc3ccccc23)CC2(CCCC(COC(=O)NCCC(C)C)O2)O1 (stereo partly specified)", "Sonic hedgehog protein (Shh)", 0.784),
    ("COc1ccc(COC(=O)NN=C2C[C@@H](O)[C@@H](O)[C@@H]3[C@@H]4C(=O)N(C5CCCCC5)C(=O)[C@@H]4CC[C@H]23)cc1", "Sonic hedgehog protein (Shh)", -1.61),
    ("Cc1ccc(S(=O)(=O)N[C@H]2COC(=O)CC=C[C@@H](C)COC(=O)CC=C[C@@H]2C)cc1", "Sonic hedgehog protein (Shh)", 1.92),
]

* * *

- protocol-details: basal S. cerevisiae growth modulation, no modifier, primary screen, OD600, strain BY4716, 24 h, basal condition (AID 1173)
- stated-conditions: OD600, 24 h, higher = more signal, called active from +8 up or from −8 down
Classify by measured z-score: criterion met if it is equal to or exceeds -0.5, criterion not met if it is smaller.

# molecule, assigned-category
records = [
    ("CC(C)(C)N1C(=O)[C@H]2[C@H]3[C@H](O)[C@H](O)CC(=O)[C@H]3CC[C@H]2C1=O", "criterion not met"),
    ("CO[C@H]1COC(=O)CC=C[C@H](C)COC(=O)[C@@H](C)NC(=O)CC=C[C@@H]1C", "criterion not met"),
    ("CC(C)(C)N1C(=O)[C@H]2[C@H]3[C@H](O)C=CC(=O)[C@@H]3CC[C@H]2C1=O", "criterion met"),
    ("CCOC(=O)[C@H](Cc1ccccc1)NC(=O)CCC1CC(OC(=O)NCCc2ccc(F)cc2)CC2(CCCC(COC(=O)NCCc3ccc(Cl)cc3)O2)O1 (stereo not given in full)", "criterion met"),
    ("C=CC[C@@H]1C=C[C@H](ON=C(C)CCC(=O)OC[C@H]2O[C@H](c3ccccc3)C=C[C@@H]2Oc2ccc(OC)cc2)[C@@H](CO)O1", "criterion met"),
    ("CCN1C(=O)[C@H]2[C@H]3[C@H](O)[C@H](O)CC(=NO[C@@H](C)c4cn([C@H](CO)Cc5ccccc5)nn4)[C@@H]3CC[C@H]2C1=O", "criterion met"),
    ("O=C1[C@H]2[C@H]3[C@H](O)[C@H](O)CC(=NOCc4ccccc4)[C@@H]3CC[C@H]2C(=O)N1C[C@@H]1CCCO1", "criterion met"),
    ("CC(=O)OC[C@H]1O[C@H](CCON=C2[C@H]3CCn4c(=O)n(-c5ccccc5)c(=O)n4[C@H]3[C@H](O)[C@@H]3O[C@H]23)C=C[C@@H]1OC(C)=O", "criterion met"),
    ("CO[C@H]1COC(=O)[C@H](C)NC(=O)CC=C[C@@H](C)[C@H](OC)COC(=O)[C@@H](OCc2ccccc2)C=C[C@@H]1C", "criterion met"),
    ("COc1ccc(O[C@H]2C=C[C@@H](c3ccccc3)O[C@@H]2CON=C(C)CCN2CCc3nc(-c4ccccc4)c(-c4ccccc4)cc3C2)cc1", "criterion not met"),
]

* * *

Below, each of the compounds is paired with its reported composite z-score value.
- target-of-assay: Dihydroorotate dehydrogenase (quinone), mitochondrial (Plasmodium falciparum (isolate 3D7)) (UniProt Q08210)
- Sequence (Q08210 whole entry, looked up): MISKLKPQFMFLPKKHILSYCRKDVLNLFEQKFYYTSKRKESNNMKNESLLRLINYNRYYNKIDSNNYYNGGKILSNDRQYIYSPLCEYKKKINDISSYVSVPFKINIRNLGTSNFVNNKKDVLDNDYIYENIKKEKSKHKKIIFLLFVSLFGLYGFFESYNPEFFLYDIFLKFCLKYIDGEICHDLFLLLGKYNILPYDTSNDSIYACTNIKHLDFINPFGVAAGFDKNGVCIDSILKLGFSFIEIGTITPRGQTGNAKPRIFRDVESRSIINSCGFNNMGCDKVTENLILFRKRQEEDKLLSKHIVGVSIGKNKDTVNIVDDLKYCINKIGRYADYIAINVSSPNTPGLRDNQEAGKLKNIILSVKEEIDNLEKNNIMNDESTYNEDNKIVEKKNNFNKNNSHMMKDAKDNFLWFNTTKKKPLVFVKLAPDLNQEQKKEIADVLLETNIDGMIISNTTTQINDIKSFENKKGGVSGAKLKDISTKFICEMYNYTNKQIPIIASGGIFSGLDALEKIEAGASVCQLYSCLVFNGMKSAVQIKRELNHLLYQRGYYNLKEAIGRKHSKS
- protocol-details: PfDHODH enzyme inhibitors, primary screen, biochemical, C-terminal His tag, absorbance 600 nm (AID 1175);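 also: recombinant parasite enzyme with a five histidine tag at its C terminus; test concentration not given here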
- stated-conditions: DCIP absorbance 600 nm, higher = more signal, called active from +8 up or from −8 down

# compound, composite z-score
rows = [
    ("CC(CCN1CCCCc2nc(C)c(C)cc21)=NO[C@@H](C)c1cn([C@H](CO)Cc2ccccc2)nn1", -1.55),
    ("CCN1C(=O)[C@@H]2[C@H]3C(=CC[C@@H]2C1=O)C1(OCCCO1)[C@H]1O[C@H]1[C@H]3O", -18.3),
    ("COc1cccc([C@H]2Oc3ccc(OC)cc3C(=NOC[C@@H](O)[C@H]3O[C@@H]4OC(C)(C)O[C@@H]4[C@H]3O)[C@@H]2O)c1", 0.474),
    ("CCOC(=O)[C@H](CC(C)C)NC(=O)CCC1CC(OC(=O)NCc2cccc3ccccc23)CC2(CCCC(COC(=O)NCCOc3ccccc3)O2)O1 (some centres undefined)", -0.785),
    ("CO[C@@H]1COC(=O)CC=C[C@@H](C)[C@H](OC)COC(=O)[C@@H](C)COC(=O)CC=C[C@H]1C", 0.577),
    ("COC(=O)CC=C[C@@H](C)[C@@H](C=NO[C@H](C)c1cn([C@H](CO)Cc2ccccc2)nn1)OC", -0.184),
    ("CCOC(=O)NN=C1C[C@@H](O)[C@@H](O)[C@@H]2[C@@H]3C(=O)N(c4ccc(F)cc4F)C(=O)[C@@H]3CC[C@@H]12", -0.0225),
    ("CC(C)=CCCC(C)=CCON=C1C[C@@H](O)[C@@H](O)[C@@H]2[C@@H]3C(=O)N(C(C)(C)C)C(=O)[C@@H]3CC[C@@H]12", 0.661),
    ("C=COC[C@@H]1CN2[C@@H](CC[C@@H](C)[C@@H]2c2ccc(Br)cc2)C(=O)O1", -3.12),
    ("COc1ccc(O[C@@H]2[C@H](O)CO[C@H]2C=Cc2ccccc2)cc1", -1.24),
    ("CC(C)(C)N1C(=O)[C@H]2[C@H]3[C@H](O)[C@H](O)CC(=NOCc4ccccc4)[C@H]3CC[C@H]2C1=O", -0.192),
    ("CCOC(=O)[C@H](Cc1ccccc1)NC(=O)OC1CC(CCC2CC(CC)=NO2)OC2(CCCC(COC(=O)NCCC(C)C)O2)C1 (some centres undefined)", -0.133),
    ("CO[C@H]1COC(=O)CC=C[C@H](C)[C@@H](OC)COC(=O)[C@@H](C)NC(=O)CC=C[C@@H]1C", -0.355),
    ("CC[C@@H](c1ccccc1)n1c(=O)n2n(c1=O)[C@H]1[C@H](O)[C@@H]3O[C@@H]3C(=NOC[C@@H](O)COCc3ccco3)[C@H]1CC2", -0.337),
    ("CC(CCN1CCc2nc(-c3ccccc3)c(-c3ccccc3)cc2C1)=NOC[C@@H](O)[C@H]1O[C@@H]2OC(C)(C)O[C@@H]2[C@H]1O", -0.897),
    ("O=C1CCCC=C1C(O)CCCCBr (centres undefined)", -1.39),
    ("C#CCCCON=C1C[C@@H](O)[C@@H](O)[C@@H]2[C@@H]3C(=O)N(CC)C(=O)[C@@H]3CC[C@@H]12", -0.367),
    ("C#CCCCON=C1C[C@@H](O)[C@@H](O)[C@@H]2[C@@H]3C(=O)N(C(C)(C)C)C(=O)[C@@H]3CC[C@@H]12", 0.289),
    ("CO[C@H]1COC(=O)[C@H](C)NC(=O)CC=C[C@@H](C)[C@H](OC)COC(=O)[C@@H](OCc2ccccc2)C=C[C@@H]1C", 0.234),
    ("COc1ccc(COC(=O)NN=C2C[C@@H](O)[C@@H](O)[C@@H]3[C@@H]4C(=O)N(c5ccc(F)cc5F)C(=O)[C@@H]4CC[C@H]23)cc1", 0.0067),
    ("CCOC(=O)[C@H](Cc1ccccc1)NC(=O)CCC1CC(OC(=O)NCCc2ccc(F)cc2)CC2(CCCC(COC(=O)NCc3ccccc3)O2)O1 (some centres undefined)", -0.447),
    ("Cn1c(=O)n2n(c1=O)[C@H]1[C@H](O)[C@@H]3O[C@@H]3C(=O)[C@H]1CC2", 0.438),
    ("CCOC(=O)C1=NO[C@@]2(C=C(Br)C3(OCCCO3)[C@H]3O[C@H]32)C1", 0.552),
    ("O=C1[C@H]2[C@H]3[C@H](O)[C@H](O)CC(=NOC[C@@H](O)COCc4ccco4)[C@H]3CC[C@H]2C(=O)N1C[C@@H]1CCCO1", -0.199),
]
